# MEASUREMENT_DESCRIPTION: self-splicing fitness, log relative to wild type (ln ratio); higher = more splicing; Tetrahymena group I intron in knt gene, E. coli kanamycin selection, DiMSum; sequences stand for … in CUCUCU…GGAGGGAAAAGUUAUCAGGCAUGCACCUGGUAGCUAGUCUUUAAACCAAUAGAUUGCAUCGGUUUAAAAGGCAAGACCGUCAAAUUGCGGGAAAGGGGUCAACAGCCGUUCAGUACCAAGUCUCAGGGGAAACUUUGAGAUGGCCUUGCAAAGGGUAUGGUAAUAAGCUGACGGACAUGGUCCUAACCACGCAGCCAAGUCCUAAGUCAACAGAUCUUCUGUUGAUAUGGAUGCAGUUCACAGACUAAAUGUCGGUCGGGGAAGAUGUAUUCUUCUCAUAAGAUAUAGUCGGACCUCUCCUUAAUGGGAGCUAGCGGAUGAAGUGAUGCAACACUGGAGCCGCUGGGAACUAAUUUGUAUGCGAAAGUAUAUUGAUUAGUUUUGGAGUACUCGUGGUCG;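 further: selection with 25 µg/mL kanamycin versus none on LB agar overnight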
# STATED_CONDITIONS: 37 °C
The reader will find reported self-splicing fitness (ln) values listed item by item below.

{"SEQUENCE_ENTRY": "ACUAAGCAAUAUUACGCAAA", "self-splicing fitness (ln)": -1.77}
{"SEQUENCE_ENTRY": "UAAAAGCAAUAUUACGAGUA", "self-splicing fitness (ln)": -0.418}
{"SEQUENCE_ENTRY": "UGGAAGCAAUAUUACGGCUG", "self-splicing fitness (ln)": 1.02}
{"SEQUENCE_ENTRY": "AAUUAGCAAUAUUACGCACU", "self-splicing fitness (ln)": -0.106}
{"SEQUENCE_ENTRY": "CUAUAGCAAUAUUACGUGGG", "self-splicing fitness (ln)": -2.16}

# input Identify measured self-splicing fitness (ln) corresponding to UUCGAGCAAUAUUACGCUAG
# output -2.05

# input Identify measured self-splicing fitness (ln) corresponding to CUCGAGCAAUAUUACGGGAG
# output -1.11

# input Identify measured self-splicing fitness (ln) corresponding to AACAAGCAAUAUUACGUGUA
# output -1.01

# input Identify measured self-splicing fitness (ln) corresponding to AAGAAGCAAUAUUACGGAGC
# output -2.66

# input Identify measured self-splicing fitness (ln) corresponding to UUGCAGCAAUAUUACGUACA
# output -0.0402

# input Identify measured self-splicing fitness (ln) corresponding to GGUGAGCAAUAUUACGUGUC
# output -1.99

# input Identify measured self-splicing fitness (ln) corresponding to UUCAAGCAAUAUUACGACAU
# output -0.69

# input Identify measured self-splicing fitness (ln) corresponding to GUUGAGCAAUAUUACGUGCA
# output -0.908

# input Identify measured self-splicing fitness (ln) corresponding to CUCCAGCAAUAUUACGCCCU
# output -2
